The reported measurements were obtained from PubChem BioAssay.

# assay target: Fibroblast growth factor 10 (Homo sapiens) (UniProt O15520)
# Sequence (O15520 whole entry, looked up): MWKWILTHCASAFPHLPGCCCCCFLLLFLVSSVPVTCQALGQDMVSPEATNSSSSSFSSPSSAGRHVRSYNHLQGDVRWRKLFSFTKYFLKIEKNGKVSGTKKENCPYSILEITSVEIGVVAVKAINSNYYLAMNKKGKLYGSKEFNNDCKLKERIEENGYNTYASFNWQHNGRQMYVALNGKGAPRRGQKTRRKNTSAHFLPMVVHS
# method summary: FGF10 binders on small-molecule microarrays, primary screen, biochemical, small-molecule microarray, 635 nm fluorescence (AID 1102)
# condition info: FGF10 binding, fluorescence 635 nm, higher = more signal
readout name: composite z-score
Reply: number alone, nothing else.

# annotated cases, reported composite z-score shown
| compound | result value |
| --- | --- |
| CCOC(=O)[C@H](Cc1ccccc1)NC(=O)CCC1CC(OC(=O)NCCc2ccc(F)cc2)CC2(CCCC(COC(=O)NCCOc3ccccc3)O2)O1 (stereo partly drawn) | 0.979 |
| COC(OC)[C@@H](C)[C@H](OC)[C@@H](C)[C@H](OC)c1ccccc1 | 0.0549 |
| CCOC(=O)CCN1C(=O)[C@H]2[C@@H]3C(=CC[C@H]2C1=O)C(=O)[C@H]1O[C@H]1[C@H]3O | -0.632 |
| CCOC(=O)[C@H](CC(C)C)NC(=O)CCC1CC(OC(=O)NCc2ccc3c(c2)OCO3)CC2(CCCC(COC(=O)NCc3ccccc3)O2)O1 (stereo partly drawn) | 0.713 |
| O=C1C[C@@H](O)[C@@H](O)[C@@H]2[C@@H]3C(=O)N(C4CCCCC4)C(=O)[C@@H]3CC[C@@H]12 | 1.11 |
| COC(=O)[C@@H]1CC[C@H](C)[C@@H](c2ccc(Br)cc2)N1C[C@H](O)CN=[N+]=[N-] | 0.248 |

Give composite z-score (Fibroblast growth factor 10 (Homo sapiens) (UniProt O15520)) of the following compound: CC(=O)OC[C@H]1O[C@H](CC=NO[C@H](C)c2cn([C@@H]3COC[C@H]3O)nn2)C=C[C@@H]1OC(C)=O 0.172

Give composite z-score (Fibroblast growth factor 10 (Homo sapiens) (UniProt O15520)) of the following compound: CC(C)CON=C1C[C@@H](O)[C@@H](O)[C@@H]2[C@@H]3C(=O)N(Cc4ccc5c(c4)OCO5)C(=O)[C@@H]3CC[C@@H]12 0.0677

---

# method summary: Plasmodium falciparum growth inhibition, primary screen, strain 3D7, DAPI fluorescence, 100 nL (AID 1184);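 note: parasites grown inside human red blood cells in medium with human serum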
# condition info: P. falciparum 3D7 growth, 3 d, higher = more signal
readout name: z-score
Reply: number alone, nothing else.

# annotated cases, reported z-score shown
| molecule | z-score |
| --- | --- |
| CCN1C(=O)[C@H]2[C@@H]3C(=CC[C@H]2C1=O)C(=O)[C@H]1O[C@H]1[C@H]3O | -1.94 |
| COC(=O)[C@@H]1CC[C@H](C)[C@@H](c2ccc(C)cc2)N1C(=O)c1ccc(C=NOC[C@H]2O[C@H](c3ccccc3)C=C[C@@H]2Oc2ccc(OC)cc2)cc1 | -1.14 |
| C[C@H]1CC[C@@H](C(=O)O)N[C@@H]1c1cccc(N2CCCC2=O)c1 | 0.752 |

Requested read-out: z-score. Entry: O=C1[C@H]2[C@H]3[C@H](O)[C@H](O)CC(=NOCc4ccccc4)[C@H]3CC[C@H]2C(=O)N1C1CCCCC1 -0.369

Requested read-out: z-score. Entry: CC(C)=CCCC(C)=CCON=C1C[C@@H](O)[C@@H](O)[C@@H]2[C@@H]3C(=O)N(Cc4ccc5c(c4)OCO5)C(=O)[C@@H]3CC[C@@H]12 -0.526

Requested read-out: z-score. Entry: O=C(NCCC[N+]1=CC=NC1c1ccccc1)N1CCCc2nc(-c3ccc(Br)cc3)ccc21 (configuration not stated) -0.449

Requested read-out: z-score. Entry: CO[C@@H]1COC(=O)[C@H](CCSC)NC(=O)CC=C[C@@H](C)COC(=O)[C@@H]2CCCN2C(=O)CC=C[C@H]1C -0.494
